SUBJECT_OF_TEST: LOG protein (Oryza sativa subsp. japonica)
Sequence (Q5ZC82 whole entry): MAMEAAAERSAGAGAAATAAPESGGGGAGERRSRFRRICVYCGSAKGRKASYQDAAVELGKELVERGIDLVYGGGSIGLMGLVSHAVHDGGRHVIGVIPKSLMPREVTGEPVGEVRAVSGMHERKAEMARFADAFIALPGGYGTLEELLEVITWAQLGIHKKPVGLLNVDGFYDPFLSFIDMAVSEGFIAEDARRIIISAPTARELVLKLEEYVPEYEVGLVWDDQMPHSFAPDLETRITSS
EXPERIMENT_DESCRIPTION: Detection of enzyme activity of recombinant LOG protein with cytokinin substrates (HPLC)
Type: biochemical
Set-up: the protein coding region of the LOG gene cDNA was inserted into pCOLD-I (TaKaRa), a His-tag protein expression vector; made in house; host or cells: E. coli BL21(DE3)[pG-Tf2]
COND: 3 μg LOG protein, 50 μM substrate, pH7, 30° C., 2 hours, HPLC absorption at 270 nm
Method: The following 8 types of cytokinin substrates were used: N^6-(delta-2-isopentenyl)adenine (iP), trans-zeatin (tZ), cis-zeatin (cZ), iP riboside (iPR), tZ riboside (tZR), cZ riboside (cZR), iPR 5′-monophosphate (iPRMP), and tZR 5′-monophosphate (tZRMP). As reaction conditions, 100 μl of a reaction solution containing 50 mM Tris-HCl, 1 mM MgCl2, and a 50 μM substrate, pH7 was incubated at 30° C. for 2 hours. […]
MEASURED_ATTRIBUTE: reactivity of the substrate with recombinant LOG protein (conversion to base form)

{"COMPOUND": "C/C(=C/CNc1ncnc2nc[nH]c12)CO [cZ, cis-zeatin]", "ASSAY_RESULT": "no reactivity"}
{"COMPOUND": "CC(C)=CCNc1ncnc2nc[nH]c12 [iP, N^6-(delta-2-isopentenyl)adenine]", "ASSAY_RESULT": "no reactivity"}
{"COMPOUND": "CC(C)=CCNc1ncnc2c1ncn2[C@@H]1O[C@H](CO)[C@@H](O)[C@H]1O [iPR, iP riboside]", "ASSAY_RESULT": "no reactivity"}
